The reported measurements were obtained from PubChem BioAssay (Tox21).

Test: qHTS assay to identify small molecule agonists of the AP-1 signaling pathway - cell viability counter screen (AID 1159525); also: nearly all actives have a fitted effect of over 55% in size
Conditions: ME-180 (cervical carcinoma) AP-1-bla cells viability, ATP luminescence, 5 h; series mostly up to 76.8 µM
Results filed as inconclusive are left out. Active and inactive are the calls of the source. Calls follow the shape of the full dose curve.
Parameter call: string, one of t for active, f for inactive

// known answers, use as guide
MOLECULE: CNNCc1ccc(C(=O)NC(C)C)cc1
CLASS_LABEL: f
//
MOLECULE: CN(C)C(=O)Nc1ccc(Cl)c(Cl)c1
CLASS_LABEL: f
//
MOLECULE: CCCCC1(COC(=O)CCC(=O)O)C(=O)N(c2ccccc2)N(c2ccccc2)C1=O
CLASS_LABEL: f
//
MOLECULE: CC(=O)Nc1c(I)c(NC(C)=O)c(I)c(C(=O)O)c1I
CLASS_LABEL: f
//
MOLECULE: NS(=O)(=O)c1cc2c(cc1Cl)NCNS2(=O)=O
CLASS_LABEL: f
//
MOLECULE: O=c1[nH]cnc2c1ncn2[C@H]1CC[C@@H](CO)O1
CLASS_LABEL: f

Dear colleague, could you share the recorded outcome for `COc1ccc(CN(CCN(C)C)c2ccccn2)cc1` when you have a moment? f

Hi team, can someone confirm the assay call for `Nc1ccc(O)c([N+](=O)[O-])c1` ? f

Please let me know the test result on file for `O=C1OC2(c3ccccc31)c1cc(Br)c(O)c(Br)c1Oc1c2cc(Br)c(O)c1Br` . f

Record lookup: outcome of this test for `Nc1c2c(nc3ccccc13)CCCC2` ? f

// outcome(item) with item = `Cc1cc(C)nc(NS(=O)(=O)c2ccc(N)cc2)n1` f

====

Assay: A CellTox Green Cytotoxicity Assay to monitor cytotoxicity in HEK293 cells - 24 hour (AID 1224875); also: nearly all actives have a fitted effect of over 45% in size
Conditions: CellTox Green fluorescence; series mostly up to 76.8 µM
Results filed as inconclusive are left out. The source made the active and inactive calls. The call rests on the fitted dose curve; in most records, active means well fitted activation curve with a large enough effect in the repeat runs; inconclusive means weak or mixed curves; inactive means flat fitted curve, though single readings scatter.
Field 'call' accepts active, inactive

COMPOUND: C1CCC(C(CC2CCCCN2)C2CCCCC2)CC1 (configuration not stated)
CLASS_LABEL: active

Name the outcome recorded for `CCCCNC(=O)NS(=O)(=O)c1ccc(C)cc1` in the assay. inactive

State the result this test recorded for `Cc1cccc(C)c1` . inactive

I would be grateful if you could indicate the recorded call for `CC/C(=C(\c1ccccc1)c1ccc(OCCN(C)C)cc1)c1ccccc1` . active

Per the records of this test, what outcome belongs to `NS(=O)(=O)O` ? inactive

====

Assay: qHTS assay to identify small molecule HDAC inhibitors - cell viability counter screen (AID 1259365); also: nearly all actives have a fitted effect of over 50% in size
Conditions: HCT-116 viability, CellTiter-Glo ATP luminescence, 2 h; series mostly up to 92.4 µM
Calls of active or inactive are those of the source. Calls come from the whole dose curve; as a rule, active = well fitted cell-killing curve with a large enough effect in the repeat runs; inconclusive = weak or mixed curves, or effect the other way; inactive = flat fitted curve, though single readings scatter.
In this exercise, the only acceptable responses are yes (1) = active, no (0) = inactive

Reference set, count: 8
COMPOUND: Cc1cccc(C)c1
CLASS_LABEL: no (0)
--
COMPOUND: CCCCC(CC)C(=O)O (centres undefined)
CLASS_LABEL: no (0)
--
COMPOUND: O=C1c2c(O)cccc2Cc2cccc(O)c21
CLASS_LABEL: no (0)
--
COMPOUND: O=C1OC2(c3ccccc31)c1cc(Br)c(O)c(Br)c1Oc1c2cc(Br)c(O)c1Br
CLASS_LABEL: no (0)
--
COMPOUND: NC(=O)c1cccnc1
CLASS_LABEL: no (0)
--
COMPOUND: CN(C)C(=S)SC(=S)N(C)C
CLASS_LABEL: no (0)
--
COMPOUND: CC1(C)S[C@@H]2[C@H](NC(=O)[C@H](N)c3ccccc3)C(=O)N2[C@H]1C(=O)O
CLASS_LABEL: no (0)
--
COMPOUND: CC(=O)C(=O)O
CLASS_LABEL: no (0)

Record lookup: outcome of this test for `NS(=O)(=O)O` ? no (0)

Short answer needed: outcome of this test for `COc1ccc(OC(F)(F)F)cc1CN[C@H]1CCCN[C@H]1c1ccccc1` ? no (0)

# outcome recorded in this test, key = CN1[C@@H]2CC(OC(=O)[C@H](CO)c3ccccc3)C[C@H]1[C@@H]1O[C@@H]12 (some centres undefined) no (0)

Lab log entry: `CN1CCC[C@H]1c1cccnc1` — outcome as called in the assay? no (0)

Please let me know the test result on file for `C[C@](N)(Cc1ccc(O)c(O)c1)C(=O)O` . no (0)

What was the test verdict on `CCCCCCc1ccc(O)cc1O` ? no (0)
